For each entry below, report its EC50 value.
targetOfAssay: T1, Ec FmlHLD
T1 chain: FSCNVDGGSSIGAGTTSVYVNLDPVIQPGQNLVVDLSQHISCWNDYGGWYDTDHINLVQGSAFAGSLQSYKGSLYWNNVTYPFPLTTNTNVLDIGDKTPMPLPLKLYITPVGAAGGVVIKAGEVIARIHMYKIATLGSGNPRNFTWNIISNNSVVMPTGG
measurementNotes: ELISA
The reply should be a number in µg/mL, with the unit left off.

Q: Sample Kp 2H07 (antibody, V domains shown) VH: EVQLQQSGPVLVKPGPSVNISCKASGFTFTDYYIHWVKQSHGKSLEWIGLVYPYSGGTYYNQKFKGKATLTVDASSSTAYMELGSLTSEDSAVYYCARLGDNFYYFDYWGQGTTLTVSS VL: QIVLTQSPTLMAASPGEKVTITCSVSSSISSSNLHWYQQKSETSPKPWIYGTSNLASGVPVRFSGSGSGTSYSLTISSMEAEDAATYYCQQWRSYPYTFGGGTKLEIKR — what was its EC50?
Ans: 2.72

Q: Sample Kp1 1B03 (antibody, V domains shown) VH: EVQLQQSGAELVKPGASVKLSCKASGYTFTSYWMHWVQQRPGQGLEWIGLIHPIGGGTHYNEKFKNKATLTVDKSSSTAYMQLSSLTSEDSAVYYCARLGTGPYYFDYWGQGTTLTVSS VL: QIVLTQSPALMAASPGEKVTITCSVSSSISSSTLDWYQQKSETSPKPWVYGTSNLASGVPVRFSGSGSGTSYSLTISSMEAEDAATYYCQQWSSYPWTFGGGTKLEIKR — what was its EC50?
Ans: 3.06

Q: Sample Kp 1C01 (antibody, V domains shown) VH: EVQLQQPGPVLVKPGPSVKISCKASGFTFTDYYMHWVKQSHGKSLEWIGLVSPYNGGTFYNQKFKGKATLTVDTSSSTAYMELNSLTSEDSAVYYCARVGNSYVHYAMDYWGQGTSVTVSS VL: QIVLTQSPALMAASPGEKVTITCSVSSSISSSNLHWYQQKSETSPKPWIYGTSNLASGVPVRFSGSGSGTSYSLTISSMEAEDAATYYCQQWSNYPYTFGGGTKLEIKR — what was its EC50?
Ans: 0.886

Q: Sample Kp 2G02 (antibody, V domains shown) VH: EVQLQQSGPVLVKPGPSVKISCKASGFTFTDYYMHWVKQSHGKSLEWIGLVYPYNGGTYYNQKFKGKATLTVDTSSSTAYMELNSLTSEDSAVYYCVRLGNGSSNEWYFDVWGTGTTVTVSS VL: QIVLTQSPALMAASPGEKVTITCSVSSSISSYNLHWYQQKSETSPKPWIYGTSNLASGVPVRFSGSGSGTSYSLTISSMEAEDAATYYCQQWRTYPWTFGGGTKLEIKR — what was its EC50?
Ans: 0.0144

Q: Sample Kp 1E07 (antibody, V domains shown) VH: EVQLQQPGAELVKPGASVKLSCKASGYTFTSYWMHWVKQRPGQGLEWIGLIHPNSGSTYYNEKFKNKATLTVDKSSSTAYMQLSSLTSEDSAVYYCARWDDSYWYFKVWGTGTTVTVSS VL: QIVLTQSPAILSASPGEKVTMTCRASSSVSYMHWYQQKPGSSPKPWIYATSNLASGVPARFSGSGSGTSYSLTISRVEAEDAATYYCQQWSSNPYTFGGGTKLEIKR — what was its EC50?
Ans: 0.0117
